- MEASUREMENT_CONDITIONS: in n-hexane, 293.15 K
PROPERTY_LABEL: solubility (mole fraction)

IN: Entry `CNC1=NCCC2(CCCCC2)S1` has what solubility (mole fraction)?
OUT: 5.39e-05

A: CCNC1=NCCC2(CCCCC2)S1
B: NC1=NCCC2(CCCCC2)S1
IN: // returns A or B , whichever has the lower solubility (mole fraction) Your answer should be the label of the entry you select.
OUT: B

* * *

- MEASUREMENT_CONDITIONS: in n-hexane, 310.15 K
PROPERTY_LABEL: solubility (mole fraction)

IN: Entry `NC1=NCCC2(CCCCC2)S1` has what solubility (mole fraction)?
OUT: 0.000105

I: CNC1=NCCC2(CCCCC2)S1
II: CCNC1=NCCC2(CCCCC2)S1
IN: // returns I or II , whichever has the lower solubility (mole fraction) Your answer should be the label of the entry you select.
OUT: I

* * *

- MEASUREMENT_CONDITIONS: in n-hexane, 298.15 K
PROPERTY_LABEL: solubility (mole fraction)

IN: Entry `NC1=NCCC2(CCCCC2)S1` has what solubility (mole fraction)?
OUT: 5.62e-05

P: CNC1=NCCC2(CCCCC2)S1
Q: CCNC1=NCCC2(CCCCC2)S1
IN: Between P and Q , which one shows the larger solubility (mole fraction) value? Your answer should be the label of the entry you select.
OUT: Q

* * *

- MEASUREMENT_CONDITIONS: in n-hexane, 303.15 K
PROPERTY_LABEL: solubility (mole fraction)

IN: Entry `CNC1=NCCC2(CCCCC2)S1` has what solubility (mole fraction)?
OUT: 6.91e-05

a: NC1=NCCC2(CCCCC2)S1
b: CCNC1=NCCC2(CCCCC2)S1
IN: Between a and b , which one shows the larger solubility (mole fraction) value? Your answer should be the label of the entry you select.
OUT: b

* * *

- MEASUREMENT_CONDITIONS: in n-hexane, 315.15 K
PROPERTY_LABEL: solubility (mole fraction)

IN: Entry `NC1=NCCC2(CCCCC2)S1` has what solubility (mole fraction)?
OUT: 0.000129

1: CCNC1=NCCC2(CCCCC2)S1
2: CNC1=NCCC2(CCCCC2)S1
IN: // returns 1 or 2 , whichever has the lower solubility (mole fraction) Your answer should be the label of the entry you select.
OUT: 2
(2: 8.67e-05, 1: 0.0043)

The values you see were collected from BigSolDB 2.1.
